Numbers sourced from patent US20240083861A1.

# assay_target: Recombinant human HSD17B13 enzyme (Homo sapiens)
# measurement_protocol: HSD17b13 NAD(P)H-Glo biochemical assay
# condition_description: 50 uM estradiol, 1 mM NAD+, NAD(P)H-Glo luminescence; read-out: HSD17β13 IC50
pIC50: −log10 of the molar value.
Below, each of the compounds is paired with its reported pIC50 value.
measured_property: pIC50

{"compound": "CN1CCN(c2cc3c(cn2)c(-c2cc(C(F)(F)F)c(F)c(O)c2F)nn3C)C(=O)C1 [Compound 9.102]", "measured_property": "pIC50", "recorded_result": "6.00 to 7.00"}
{"compound": "Cn1nc(-c2cc(C(F)(F)F)c(F)c(O)c2F)c2cnc(N3CCC(C)(O)CC3)nc21 [Compound 18.65]", "measured_property": "pIC50", "recorded_result": "> 7.00"}
{"compound": "Cn1nc(-c2cc(C(F)(F)F)c(F)c(O)c2F)c2cnc(N3CCOCC34CC4)nc21 [Compound 12.03]", "measured_property": "pIC50", "recorded_result": "> 7.00"}
{"compound": "Cn1nc(-c2cc(C(F)(F)F)c(F)c(O)c2F)c2cnc(C3CCN(S(C)(=O)=O)CC3)cc21 [Compound 15.03]", "measured_property": "pIC50", "recorded_result": "6.00 to 7.00"}
{"compound": "Cn1nc(-c2cc(C(F)(F)F)c(F)c(O)c2F)c2cnc(N3CCOC(CC(=O)O)C3)nc21 (stereo not shown) [Compound 18.57]", "measured_property": "pIC50", "recorded_result": "4.52 to 6.00"}
{"compound": "Cn1nc(-c2cc(C(F)(F)F)c(F)c(O)c2F)c2cnc(N3CC4CC(C3)N4S(C)(=O)=O)nc21 [Compound 18.74]", "measured_property": "pIC50", "recorded_result": "6.00 to 7.00"}
{"compound": "CN(c1ccc2c(-c3cc(C(F)(F)F)c(F)c(O)c3F)nn(C)c2n1)C1CCC1 [Compound 9.18]", "measured_property": "pIC50", "recorded_result": "> 7.00"}

----------
Reported pIC50 values for a set of compounds
# assay_target: Recombinant human HSD17B13 enzyme (Homo sapiens, UniProt Q7Z5P4)
# Sequence (Q7Z5P4 20-300): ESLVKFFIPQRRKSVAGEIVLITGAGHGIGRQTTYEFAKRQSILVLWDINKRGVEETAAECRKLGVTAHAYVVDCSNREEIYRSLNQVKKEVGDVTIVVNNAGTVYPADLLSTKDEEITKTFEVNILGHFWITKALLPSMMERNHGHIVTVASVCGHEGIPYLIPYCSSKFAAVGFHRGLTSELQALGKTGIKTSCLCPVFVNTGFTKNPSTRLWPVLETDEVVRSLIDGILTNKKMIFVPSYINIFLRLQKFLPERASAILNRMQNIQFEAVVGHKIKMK
# measurement_protocol: HSD17b13 NAD(P)H-Glo biochemical assay
# condition_description: 50 uM estradiol, 1 mM NAD+, NAD(P)H-Glo luminescence; read-out: HSD17β13 IC50
pIC50: −log10 of the molar value.

{"compound": "COCC1COCCN1c1cc2c(cn1)c(-c1cc(C(F)(F)F)c(F)c(O)c1F)nn2C (centres unmarked)", "pIC50": "> 7.00"}
{"compound": "COCC1COCCN1c1ncc2c(-c3cc(C(F)(F)F)c(F)c(O)c3F)nn(C)c2n1 (centres unmarked)", "pIC50": "> 7.00"}
{"compound": "Cn1nc(-c2cc(O)cc3ccccc23)c2cnc(N3CCN(S(C)(=O)=O)C4(CC4)C3)nc21", "pIC50": "4.52 to 6.00"}
{"compound": "CN(c1ncc2c(-c3cc(C(F)(F)F)c(F)c(O)c3F)nn(C)c2c1Cl)C1CCOCC1", "pIC50": "> 7.00"}
{"compound": "CS(=O)(=O)N1CCN(c2ccc3oc(-c4ccc(F)c(O)c4)nc3c2)CC1", "pIC50": "6.00 to 7.00"}
{"compound": "Oc1cc(-c2n[nH]c3cc(-c4ccc(O)c(Cl)c4)ccc23)ccc1F", "pIC50": "6.00 to 7.00"}
{"compound": "Cn1nc(-c2cc(C(F)(F)F)c(F)c(O)c2F)c2cnc(N3CCN(C(=O)c4ccccc4)CC3)nc21", "pIC50": "> 7.00"}
{"compound": "CNC(=O)C1CN(c2cc3c(cn2)c(-c2cc(C(F)(F)F)c(F)c(O)c2F)nn3C)CCO1 (centres unmarked)", "pIC50": "> 7.00"}
